Provide the recorded Plant response rating, Blackgrass for the entries that follow.
test system: blackgrass (Alopecurus myosuroides); experiment: Test A postemergence, blackgrass; type: in vivo; conditions: 31 g ai/ha, postemergence; 0 to 100 scale, 0 is no effect, 100 is complete control; approximately 10 days
Give bare numbers.

In the examples that follow, each entry is paired with its recorded Plant response rating, Blackgrass.
1) N#Cc1cccc(Oc2ncc(F)cn2)c1OCCCF | 0
2) FC(F)(F)CCOc1c(Cl)cccc1Oc1ncc(Cl)cn1 | 0
3) N#CCCCOc1c(Cl)cccc1Oc1ncc(Cl)cn1 | 0
4) FC(F)(F)/C=C/COc1c(Cl)cccc1Oc1ncc(Cl)cn1 | 10
5) FC(F)(F)/C=C/COc1c(I)cccc1Oc1ncc(Cl)cn1 | 0

Dear reader, for each entry below, please note its Plant response rating, Blackgrass.
1. FC(F)(F)CCCCOc1c(Br)cccc1Oc1ncc(Cl)cn1
2. FCCCOc1c(Cl)cccc1Oc1ncc(Cl)cn1

10
0

Dear reader, for each entry below, please note its Plant response rating, Blackgrass.
1. FC(F)(F)CCCOc1c(I)cccc1Oc1ncc(Cl)cn1
2. N#Cc1cccc(Oc2ncc(Cl)cn2)c1OCC(=O)CCC(F)(F)F

30
0

For Cc1cccc(Oc2ncc(Cl)cn2)c1OC/C=C/C(F)(F)F , what is its reported Plant response rating, Blackgrass?
0
